src = patent US20260209345A1

In this section we review reported pKd values for a set of binders.
# System Under Test: T1, recombinant LILRB1 ECD (human, UniProt Q8NHL6 24-461)
# T1 construct: also called biotinylated LILRB1 ECD
# T1 sequence (Q8NHL6 24-461 limits assumed): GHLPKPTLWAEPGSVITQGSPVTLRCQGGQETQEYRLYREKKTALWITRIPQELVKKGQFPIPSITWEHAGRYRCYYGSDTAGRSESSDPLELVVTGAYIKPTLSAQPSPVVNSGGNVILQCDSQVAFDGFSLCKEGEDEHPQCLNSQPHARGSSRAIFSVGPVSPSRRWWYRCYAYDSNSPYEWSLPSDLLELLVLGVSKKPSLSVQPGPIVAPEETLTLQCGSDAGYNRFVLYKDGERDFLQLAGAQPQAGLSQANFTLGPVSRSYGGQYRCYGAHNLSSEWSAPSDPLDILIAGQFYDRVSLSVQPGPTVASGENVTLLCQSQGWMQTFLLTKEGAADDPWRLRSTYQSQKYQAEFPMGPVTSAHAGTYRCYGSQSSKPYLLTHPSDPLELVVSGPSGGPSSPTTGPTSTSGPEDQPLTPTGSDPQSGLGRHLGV
# Assay Remarks: BLI, IgG on AHC sensor, ECD in solution
To interpret pKd, take it as minus log10 of a concentration measured in moles per litre.

1. A-026 (antibody, V domains shown, tested as IgG) VH: QVQLVQSGAEVKKPGSSVKVSCKASGYTFTSHGMSWVRQAPGQGLEWMGGILPIFHTATYAQKFQGRVTITADESTSTAYMELSSLRSEDTAVYYCAKGPPVGSSSWYTDWYFDLWGRGTLVTVSS VL: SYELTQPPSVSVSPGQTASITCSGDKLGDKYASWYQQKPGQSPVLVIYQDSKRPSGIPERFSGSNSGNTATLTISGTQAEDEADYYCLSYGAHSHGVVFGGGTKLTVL
8.36
2. A-007 (antibody, V domains shown, tested as IgG) VH: QVQLVQSGAEVKKPGSSVKVSCKASGGSFREYAFSWVRQAPGQGLEWMGSIIPTFHTSNYAGKFQGRVTITADESTSTAYMELSSLRSEDTAVYYCAKDLGTYSSGWPYYYGMDVWGQGTTVTVSS VL: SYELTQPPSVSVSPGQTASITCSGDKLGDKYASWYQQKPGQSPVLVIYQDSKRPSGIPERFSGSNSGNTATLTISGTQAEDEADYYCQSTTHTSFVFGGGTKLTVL
7.93
3. A-035 (antibody, V domains shown, tested as IgG) VH: QVQLVQSGAEVKKPGSSVKVSCKASGGTFSSYAISWVRQAPGQGLEWMGGIIPIFGTANYAQKFQGRVTITADESTSTAYMELSSLRSEDTAVYYCAKDLGTYSSGWPYYYGMDVWGQGTTVTVSS VL: SYELTQPPSVSVSPGQTASITCSGDKLGDKYASWYQQKPGQSPVLVIYQDSKRPSGIPERFSGSNSGNTATLTISGTQAEDEADYYCQLSHGTLLVFGGGTKLTVL
7.89

Q: Assign pKd to the following record: A-021 (antibody, V domains shown, tested as IgG) VH: QVQLVQSGAEVKKPGSSVKVSCKASGGSITSYAFAWVRQAPGQGLEWMGGIIPGFYAANYAQKFQGRVTITADESTSTAYMELSSLRSEDTAVYYCAKDLGTYSSGWPYYYGMDVWGQGTTVTVSS VL: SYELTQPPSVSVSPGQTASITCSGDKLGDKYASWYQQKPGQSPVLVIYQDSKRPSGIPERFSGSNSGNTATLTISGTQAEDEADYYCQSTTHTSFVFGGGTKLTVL
Ans: 8.31

Q: Could you please provide reported pKd for Ref062 [NGM707, cross-specific] (antibody, from another filing, V domains shown) VH: QVQLVQSGAEVKKPGASVKVSCKASGYTFTDYYINWVRQAPGQGLEWMGNVNPNDGGTTYNQKFKGRVTMTTDTSTSTAYMELRSLRSDDTAVYYCARREIYFYGTIYYYAMDYWGQGTLVTVSS VL: DIQLTQSPSFLSASVGDRVTITCRASESVDYYGNSFMYWYQQKPGKAPKLLIYFASNLESGVPSRFSGSGSGTEFTLTISSLQPEDFATYYCQQNNEDPWTFGGGTKVEIKR ? Thanks!
Ans: 9.30
